Recorded MIC for the following molecules
test system: Staphylococcus aureus M133*; experiment: minimum growth inhibitory concentration, serial dilution method; type: cell-based; conditions: Staphylococcus aureus, MRSA, S. aureus M133, methicillin-resistant (MRSA); sodium salts; 35° C., 18-20 hours; read-out: Minimum growth inhibition concentrations (MIC)
Reply with just the number (in µg/mL).

Known MIC results, listed for orientation:
[
  {
    "Molecule": "C=CC1=C(C(=O)O)N2C(=O)[C@@H](NC(=O)/C(=N\\O)c3csc(N)n3)[C@H]2SC1 [CFDN, Cefdinir, reference compound]",
    "Measured target": "Staphylococcus aureus M133*",
    "MIC, µg/mL": 6.25
  },
  {
    "Molecule": "Nc1nc(C(=NO)C(=O)NC2C(=O)N3C(C(=O)O)=C(C=Cc4scnc4C(F)(F)F)CSC23)cs1 (centres unmarked) [Compound B]",
    "Measured target": "Staphylococcus aureus M133*",
    "MIC, µg/mL": 6.25
  },
  {
    "Molecule": "CON=C(C(=O)NC1C(=O)N2C(C(=O)O)=C(C=Cc3scnc3C)CSC12)c1csc(N)n1 (centres unmarked) [ME1206, reference compound]",
    "Measured target": "Staphylococcus aureus M133*",
    "MIC, µg/mL": 25
  }
]

Field request: MIC | item: Nc1nc(C(=NO)C(=O)NC2C(=O)N3C(C(=O)O)=C(C=Cc4scnc4Cl)CSC23)cs1 (centres unmarked) [Compound A]
6.25

Repeat for the following molecule: Cc1ncsc1C=CC1=C(C(=O)O)N2C(=O)C(NC(=O)C(=NO)c3nsc(N)n3)C2SC1 (centres unmarked) [Compound F]
3.13

Repeat for the following molecule: Cc1ncsc1C=CC1=C(C(=O)O)N2C(=O)C(NC(=O)C(=NO)c3csc(N)n3)C2SC1 (centres unmarked) [Compound C]
6.25

Repeat for the following molecule: Nc1nc(C(=NO)C(=O)NC2C(=O)N3C(C(=O)O)=C(C=Cc4cncs4)CSC23)cs1 (centres unmarked) [Compound D]
3.13

Repeat for the following molecule: C=CC1=C(C(=O)O)N2C(=O)[C@@H](NC(=O)/C(=N\OCC(=O)O)c3csc(N)n3)[C@H]2SC1 [CFIX, Cefixime, reference compound]
100

* * *

assay: blood concentration pharmacokinetics after subcutaneous injection in mice; type: in vivo, mice (Jcl;ICR strain); conditions: mouse, serum, sc, 0.5 mg, sodium salt, subcutaneous, 0.5 mg per mouse, HPLC of serum; read-out: AUC (area under the plasma concentration-time curve)
Experimental readout: AUC (µg·h/mL)
Reply with just the number (in µg·h/mL).

Known AUC results, listed for orientation:
[
  {
    "Molecule": "Nc1nc(C(=NO)C(=O)NC2C(=O)N3C(C(=O)O)=C(C=Cc4scnc4Cl)CSC23)cs1 (stereo not drawn)",
    "Experimental readout": "AUC",
    "Observed value": 211
  },
  {
    "Molecule": "Cc1ncsc1C=CC1=C(C(=O)O)N2C(=O)C(NC(=O)C(=NO)c3nsc(N)n3)C2SC1 (stereo not drawn)",
    "Experimental readout": "AUC",
    "Observed value": 163
  }
]

Field request: AUC | item: Nc1nc(C(=NO)C(=O)NC2C(=O)N3C(C(=O)O)=C(C=Cc4scnc4C(F)(F)F)CSC23)cs1 (stereo not drawn)
149

Repeat for the following molecule: CON=C(C(=O)NC1C(=O)N2C(C(=O)O)=C(C=Cc3scnc3C)CSC12)c1csc(N)n1 (stereo not drawn) [ME1206, reference compound]
184

Repeat for the following molecule: Cc1ncsc1C=CC1=C(C(=O)O)N2C(=O)C(NC(=O)C(=NO)c3csc(N)n3)C2SC1 (stereo not drawn)
249

Repeat for the following molecule: Nc1nc(C(=NO)C(=O)NC2C(=O)N3C(C(=O)O)=C(C=Cc4cncs4)CSC23)cs1 (stereo not drawn)
253

* * *

Recorded half-life for the following compounds
experiment: blood concentration pharmacokinetics after subcutaneous injection in mice; format: in vivo, mice (Jcl;ICR strain); conditions: mouse, serum, sc, 0.5 mg, sodium salt, subcutaneous, 0.5 mg per mouse, HPLC of serum
Put down the number, then write its unit next to it.

[
  {
    "Compound": "Cc1ncsc1C=CC1=C(C(=O)O)N2C(=O)C(NC(=O)C(=NO)c3csc(N)n3)C2SC1 (stereo not drawn)",
    "Experimental readout": "half-life",
    "Observed value": "1.4 h"
  },
  {
    "Compound": "Cc1ncsc1C=CC1=C(C(=O)O)N2C(=O)C(NC(=O)C(=NO)c3nsc(N)n3)C2SC1 (stereo not drawn)",
    "Experimental readout": "half-life",
    "Observed value": "0.9 h"
  },
  {
    "Compound": "Nc1nc(C(=NO)C(=O)NC2C(=O)N3C(C(=O)O)=C(C=Cc4cncs4)CSC23)cs1 (stereo not drawn)",
    "Experimental readout": "half-life",
    "Observed value": "1.1 h"
  }
]

Field request: half-life | item: Nc1nc(C(=NO)C(=O)NC2C(=O)N3C(C(=O)O)=C(C=Cc4scnc4Cl)CSC23)cs1 (stereo not drawn)
1.1 h

Repeat for the following compound: CON=C(C(=O)NC1C(=O)N2C(C(=O)O)=C(C=Cc3scnc3C)CSC12)c1csc(N)n1 (stereo not drawn) [ME1206, reference compound]
1.1 h

Repeat for the following compound: Nc1nc(C(=NO)C(=O)NC2C(=O)N3C(C(=O)O)=C(C=Cc4scnc4C(F)(F)F)CSC23)cs1 (stereo not drawn)
0.7 h

* * *

Quick note: these are MIC numbers for system: Enterobacter cloacae G-0008
Reply with just the number (in µg/mL).

Field request: MIC | item: Nc1nc(C(=NO)C(=O)NC2C(=O)N3C(C(=O)O)=C(C=Cc4scnc4Cl)CSC23)cs1 (centres unmarked) [Compound A]
1.56

Repeat for the following compound: C=CC1=C(C(=O)O)N2C(=O)[C@@H](NC(=O)/C(=N\O)c3csc(N)n3)[C@H]2SC1 [CFDN, Cefdinir, reference compound]
6.25

* * *

Quick note: these are MIC numbers for system: Enterobacter cloacae G-0008
Reply with just the number (in µg/mL).

Known MIC results, listed for orientation:
[
  {
    "Compound": "Nc1nc(C(=NO)C(=O)NC2C(=O)N3C(C(=O)O)=C(C=Cc4cncs4)CSC23)cs1 (stereo not drawn)",
    "MIC (µg/mL)": 0.78
  },
  {
    "Compound": "Cc1ncsc1C=CC1=C(C(=O)O)N2C(=O)C(NC(=O)C(=NO)c3csc(N)n3)C2SC1 (stereo not drawn)",
    "MIC (µg/mL)": 0.78
  },
  {
    "Compound": "Nc1nc(C(=NO)C(=O)NC2C(=O)N3C(C(=O)O)=C(C=Cc4scnc4C(F)(F)F)CSC23)cs1 (stereo not drawn)",
    "MIC (µg/mL)": 1.56
  }
]

Field request: MIC | item: CON=C(C(=O)NC1C(=O)N2C(C(=O)O)=C(C=Cc3scnc3C)CSC12)c1csc(N)n1 (stereo not drawn) [ME1206, reference compound]
1.56

Repeat for the following compound: C=CC1=C(C(=O)O)N2C(=O)[C@@H](NC(=O)/C(=N\OCC(=O)O)c3csc(N)n3)[C@H]2SC1 [CFIX, Cefixime, reference compound]
0.78

Repeat for the following compound: Cc1ncsc1C=CC1=C(C(=O)O)N2C(=O)C(NC(=O)C(=NO)c3nsc(N)n3)C2SC1 (stereo not drawn)
1.56

Data origin: patent US5827845A
